Reference source for all entries: the supplement of paper PMC10065799

Give phosphorylation enrichment for every item shown.
molecular target: Fes (UniProt P07332); experiment: phosphorylation enrichment, bacterial display (enrichment ratio); higher = better substrate or ligand; peptides without Tyr show the background;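 further: 11-residue human phosphosite peptides and single-mutation variants displayed on the E. coli surface, counted by deep sequencing, each peptide's frequency after selection divided by its frequency in the unselected input library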;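 further: frequency after pTyr selection over input frequency; kinase dosed for 20-30% of maximal phosphorylation in three min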
Sequence (P07332 whole entry, looked up): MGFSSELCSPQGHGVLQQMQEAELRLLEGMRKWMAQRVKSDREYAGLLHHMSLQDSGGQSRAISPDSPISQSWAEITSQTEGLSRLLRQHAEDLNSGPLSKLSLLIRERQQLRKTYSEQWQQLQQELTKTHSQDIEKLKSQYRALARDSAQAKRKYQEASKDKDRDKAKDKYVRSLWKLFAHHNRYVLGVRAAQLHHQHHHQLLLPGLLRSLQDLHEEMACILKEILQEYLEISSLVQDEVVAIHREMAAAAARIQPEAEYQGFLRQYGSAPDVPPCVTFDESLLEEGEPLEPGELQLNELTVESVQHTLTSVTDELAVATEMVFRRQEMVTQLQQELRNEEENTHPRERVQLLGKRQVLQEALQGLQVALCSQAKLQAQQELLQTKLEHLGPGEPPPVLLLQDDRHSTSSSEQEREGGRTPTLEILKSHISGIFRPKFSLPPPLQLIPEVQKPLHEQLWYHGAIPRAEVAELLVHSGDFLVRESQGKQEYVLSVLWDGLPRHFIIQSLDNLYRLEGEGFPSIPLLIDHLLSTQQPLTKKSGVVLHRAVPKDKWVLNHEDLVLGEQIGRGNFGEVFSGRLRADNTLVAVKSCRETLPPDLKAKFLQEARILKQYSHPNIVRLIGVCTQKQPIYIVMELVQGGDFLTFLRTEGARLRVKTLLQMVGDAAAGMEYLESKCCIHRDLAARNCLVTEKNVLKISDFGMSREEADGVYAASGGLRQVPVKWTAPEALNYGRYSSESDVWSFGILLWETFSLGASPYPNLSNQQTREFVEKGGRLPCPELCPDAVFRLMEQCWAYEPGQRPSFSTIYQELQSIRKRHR

State the recorded phosphorylation enrichment for every item in the following list.
1. LTFHMYADPNF [SOS1_Y618_YF]
2. FEGAIYRKDIG [GART_Y417_V421I]
3. AHAGEYGEEAL [HBA1_Y25_A27E]
4. SEPDLYCDPRG [PKP1_Y160]
5. AVLALYNSTRD [TGFB1_Y81]
6. NDQANYSLNTD [ADA_Y290]
7. LRTAVHHEILI [CREBBP_Y1450_Y1450H]

1. 1.97
2. 0.769
3. 1.47
4. 1.15
5. 0.942
6. 0.982
7. 1.39

State the recorded phosphorylation enrichment for every item in the following list.
1. LLREWYLQDPY [SIX3_Y225]
2. VTPVMYTYDEY [COL10A1_Y623_G618V]
3. RMSQRYRDVLQ [CYP1A2_Y72_G73R]
4. KAIMTYVSSFY [ACTN4_Y260]
5. RLDPVYFVAPA [LAMC2_Y250]
6. LKYAIYFEVRE [LAMA2_Y1258_A1261V]
7. SLQSEYVHYGG [CDC14A_Y591]

1: 1.52; 2: 1.05; 3: 1.08; 4: 1.05; 5: 0.787; 6: 2.57; 7: 0.774

State the recorded phosphorylation enrichment for every item in the following list.
1. YPLELYERVRM [PRKCG_Y312]
2. DENRFYTRAAS [RPS19_Y54_W52R]
3. YIILIYAMKKK [SLCO1B1_Y645]
4. YARECYSALPQ [SARS2_Y52_G51C]
5. EFFDGYWEFSV [ITGA2B_Y265_G267E_YF]
6. GHRPVYSEDEQ [CHST6_Y362_Y358H]
7. ARKWGYTVKGI [OAT_Y158]
8. HRFAAYFQQGD [GPI_Y351]

[1.25, 0.907, 0.511, 0.972, 1.55, 1.13, 0.912, 1.79]

State the recorded phosphorylation enrichment for every item in the following list.
1. SKNSKYNAEST [PSEN1_Y315]
2. EFTPLYPMLFG [SCLY_Y280]
3. DEDYLCREELA [POR_Y575_Y575C]
4. RLKAKYAAATG [GLI3_Y933]
5. RQSTLYSFFPK [MSH6_Y8]
6. GHLYACDWISI [BEST1_Y227_Y227C]
7. AHAGEYGAEAL [HBA1_Y25]

1: 0.609; 2: 1.12; 3: 1.54; 4: 0.611; 5: 1.77; 6: 1.43; 7: 0.816

State the recorded phosphorylation enrichment for every item in the following list.
1. FCRHNYGVVES [HLA-DRB1_Y112_YF]
2. TKDTFHKQPMF [GBA_Y451_Y451H]
3. IEENGYNTYAS [FGF10_Y161]
4. PKGWNYELPAT [PROM1_Y34_A31G]
5. YSPCDYQPCLA [TNS1_Y798_Y796C]
6. RENGPYYTSYP [GDAP2_Y487]
7. MSPPGYKLVNG [GJA1_Y286_T290N]
8. FADIAYNFRRG [PAH_Y166_H170R_YF]

0.843
0.476
1.12
0.867
0.966
1.05
0.561
0.649

State the recorded phosphorylation enrichment for every item in the following list.
1. SSVKPYRVFCD [FGB_Y266_YF]
2. TVDASYYGGRG [ANTXR2_Y380]
3. LHRAHYDLRHT [AHSG_Y314]
4. VMVCAYLLHRG [PTEN_Y138_I135V]
5. LDFPEYNGVDR [CASQ1_Y43_D44N]
6. YYLGKYLQEVL [KLB_Y910]
7. LVMFTYAIFGM [SCN1A_Y1684_I1683T]
8. DLLNSYIENEG [HSPA4L_Y600]

0.74
0.66
1.11
1.3
3.29
1.34
2.16
0.999

State the recorded phosphorylation enrichment for every item in the following list.
1. LIHLHYIRKDF [BBS4_Y43_YF]
2. TRSYDYMEGGD [FGF7_Y58]
3. IFHLSYLHNCE [PDE6B_Y227_YF]
4. VIKDKYPKAHY [APTX_Y209_R213H]
5. FTRNFYVQAVL [CYBA_Y88_R90Q_YF]
6. KRAIGYYSATS [FAM120A_Y327]
7. KLKRSYPSPDI [USP8_Y717_S718P]

1: 1.18; 2: 1.03; 3: 1.26; 4: 0.599; 5: 1.31; 6: 0.472; 7: 0.546

State the recorded phosphorylation enrichment for every item in the following list.
1. PSSRDYKDNIK [PIGN_Y227_H229D]
2. DVFVSYDFGKS [SORL1_Y139_YF]
3. GNEEAYGSSHI [FAM171B_Y522_R524S]
4. LARDMHDKEYY [MET_Y1230_Y1230H]
5. PRARTYCYKQE [KLHDC9_Y175_S171R]

1. 0.649
2. 0.907
3. 0.817
4. 0.678
5. 1.01

Dear colleague, I am looking for the recorded phosphorylation enrichment of the following sequence: GKFHMYVAVWT [F13A1_Y161_R159H]
1.1

###

Give phosphorylation enrichment for every item shown.
tested on: Fer (mouse); test: phosphorylation enrichment, bacterial display (enrichment ratio); higher = better substrate or ligand; peptides without Tyr show the background
One number for each entry.

State the recorded phosphorylation enrichment for every item in the following list.
1. KELALYDENWF [RPS19_Y48_P47L]
2. RRIYSYRGHLW [VHL_Y112_H110Y]
3. EFTPLYPMLFG [SCLY_Y280]

[7.67, 1.02, 0.458]

Recall the recorded phosphorylation enrichment for LDFPEYNGVDR [CASQ1_Y43_D44N] with Fer (mouse) and state it.
1

###

biological target: FGFR3 (UniProt P22607); test: phosphorylation enrichment, bacterial display (enrichment ratio); higher = better substrate or ligand; peptides without Tyr show the background
Sequence (P22607 whole entry, looked up): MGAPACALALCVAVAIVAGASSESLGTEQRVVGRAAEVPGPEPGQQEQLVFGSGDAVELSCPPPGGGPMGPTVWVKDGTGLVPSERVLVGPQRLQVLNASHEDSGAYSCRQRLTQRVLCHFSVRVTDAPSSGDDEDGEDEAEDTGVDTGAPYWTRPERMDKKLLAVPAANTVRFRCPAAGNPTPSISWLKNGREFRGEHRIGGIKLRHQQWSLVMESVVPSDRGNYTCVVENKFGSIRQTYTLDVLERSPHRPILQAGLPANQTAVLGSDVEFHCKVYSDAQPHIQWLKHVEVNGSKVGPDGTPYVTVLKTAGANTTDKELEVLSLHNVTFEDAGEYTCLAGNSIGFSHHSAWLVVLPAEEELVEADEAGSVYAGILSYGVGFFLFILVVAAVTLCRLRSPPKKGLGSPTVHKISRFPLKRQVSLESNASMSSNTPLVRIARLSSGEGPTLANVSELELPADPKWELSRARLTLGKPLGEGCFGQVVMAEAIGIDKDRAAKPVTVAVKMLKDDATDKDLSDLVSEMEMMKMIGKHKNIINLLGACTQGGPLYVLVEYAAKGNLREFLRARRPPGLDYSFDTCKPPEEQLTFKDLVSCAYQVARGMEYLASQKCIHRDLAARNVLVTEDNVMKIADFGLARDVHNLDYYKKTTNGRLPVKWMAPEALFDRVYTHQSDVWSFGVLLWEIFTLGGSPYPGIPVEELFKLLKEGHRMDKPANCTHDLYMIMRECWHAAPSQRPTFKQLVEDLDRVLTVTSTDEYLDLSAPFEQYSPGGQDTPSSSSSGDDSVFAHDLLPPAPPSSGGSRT
Give phosphorylation enrichment for every item shown.

Consider the worked cases shown below.
1) ADPQEYIPLPA [JAKtide_2014]; 0.693
2) IQRSLYDRPAS [PDGFRA_Y762]; 0.469
3) PLDGEYVTLQI [TP53_Y327_F328V]; 1.57

State the recorded phosphorylation enrichment for every item in the following list.
1. RRETPYGGGGG [FUS_Y526_R524T]
2. KLQKYYRQNPD [EHHADH_Y683]
3. TYVKSYTIHYS [F5_Y2153_M2148T]
4. SVVVPYQPPEV [TP53_Y220_E221Q]

[1.07, 0.419, 0.696, 0.596]

State the recorded phosphorylation enrichment for every item in the following list.
1. ASKEPYFVHCI [MYO1D_Y585_R588H_YF]
2. EFTPLYPMLFG [SCLY_Y280]
3. RIRRRYCQVLN [IQCF1_Y144]
4. HEEKVYLSRGD [CRACR2A_Y141]

1. 0.882
2. 9.26
3. 0.703
4. 1.17

###

target: Fes (UniProt P07332); assay: phosphorylation enrichment, bacterial display (enrichment ratio); higher = better substrate or ligand; peptides without Tyr show the background
Give phosphorylation enrichment for every item shown.
Numbers only.

Consider the worked cases shown below.
1) EACPSYSHVVL [CHST6_Y168_R166P]; 0.702
2) TGILLHGLASR [QARS1_Y57_Y57H]; 0.629
3) PQGVRYIFTID [DCX_Y103_YF]; 3.66
4) TDTQLYGRFGS [ITGA2B_Y384_G380D]; 0.888
5) YRTPGYREVVI [TNS2_Y673_A670T]; 0.721
6) FLAVGYHKPYI [IDS_Y225_H229Y]; 1.16

Switching to the query record.
Dear colleague, I am looking for the recorded phosphorylation enrichment of the following sequence: EQLQSYQVEII [KRT33A_Y268_A270V]
1.21

###

Give phosphorylation enrichment for every item shown.
test system: c-Abl (mouse); test: phosphorylation enrichment, bacterial display (enrichment ratio); higher = better substrate or ligand; peptides without Tyr show the background
Answers are plain numbers.

1. DVFVSYDFGKS [SORL1_Y139_YF]; 0.78
2. SVTCTYYPALN [TP53_Y126_S127Y]; 1.01
3. QFLMMYVWSAS [ABCD1_Y337_K336M]; 1.27
4. AEMKRYSESSS [RAI14_Y869_A870S]; 0.43
5. RNESFYDTFST [EFCAB3_Y372]; 2.23

State the recorded phosphorylation enrichment for every item in the following list.
1. SVTCTYSPALN [TP53_Y126]
2. KGPGEYVNIEF [IRS1_Y896_S892G]

1. 0.976
2. 0.493
